Origin of values: PubChem BioAssay AID1852

# measurement_notes: TNF-a-driven NF-kB reporter inhibitors, primary screen, selectivity assay for NOD1/NOD2 signaling inhibitor project, cell-based, HEK293T NF-kB-Luc, luminescence (AID 1852)
# details: TNF-a induced, 14 h, at 4 µM, active compounds read high
Hit rate of the full screen: of about 2,500 compounds, about 1,100 (44%) were called active. The set was probably picked from earlier hits. The list shows a part of the results.
measured_parameter: inhibition (%)
Respond with the bare value in %.

Task: Reported inhibition for Cn1cccc1Cc1nnc(SCC(=O)Nc2cccc(Cl)c2)n1-c1ccc(F)cc1 : what is it?
Output: 11.5

Task: Reported inhibition for N#CC1=C(N)N2C(=C(C#N)C1c1cccc(Br)c1)Nc1ccccc12 (configuration not stated) : what is it?
Output: 89.3

Task: Reported inhibition for Nc1ncncc1-c1ccc2ccccc2c1 : what is it?
Output: 16.7

Task: Reported inhibition for Cc1onc(-c2c(F)cccc2Cl)c1C(=O)Nc1nnc(C(F)(F)F)s1 : what is it?
Output: 48.9

Task: Reported inhibition for CC1C/C(=C/c2ccccn2)C(=O)/C(=C/c2ccccn2)C1 (configuration not stated) : what is it?
Output: 96.2

Task: Reported inhibition for COc1ccc(C(=O)CN2C(=O)c3ccccc3S2(=O)=O)cc1 : what is it?
Output: 92.1

Task: Reported inhibition for CCCCCn1c(=O)[nH]c2cc(C(=O)N3CCN(Cc4ccc5c(c4)OCO5)CC3)ccc2c1=O : what is it?
Output: 34.6

Task: Reported inhibition for Cc1ccc(-n2nc3c(=O)n(C(C)C(=O)NCCc4cccs4)nc(C)c3c2C)cc1 (configuration not stated) : what is it?
Output: 60.4

Task: Reported inhibition for CCOc1ccc(/C=N/NC(=O)C(O)c2ccccc2)c(O)c1 (configuration not stated) : what is it?
Output: 45.4

Task: Reported inhibition for CC(C)c1ccc(S(=O)(=O)/N=C2/C=C(Sc3ncn[nH]3)C(=O)c3ccccc32)cc1 : what is it?
Output: 84.1

Task: Reported inhibition for Cc1ccc(-n2nc3c(=O)n(CC(=O)NC(C)CCc4ccccc4)nc(C)c3c2C)cc1 (configuration not stated) : what is it?
Output: 50

Task: Reported inhibition for COc1ccc(CCN2C(=S)N(c3ccc(Cl)cc3)C(=O)C2CC(N)=O)cc1OC (configuration not stated) : what is it?
Output: 17.3

Task: Reported inhibition for O=C(Nc1ccccc1C(=O)Nc1nnc(C(F)(F)F)s1)c1ccccc1 : what is it?
Output: 51

Task: Reported inhibition for C[C@@H](C(=O)NCCc1ccccc1)N1C(=O)N2CCc3c([nH]c4ccccc34)[C@@]2(C)C1=O : what is it?
Output: 38.1

Task: Reported inhibition for O=C(NCc1ccco1)c1nc2c(nnn2Cc2ccccc2Cl)c(=O)[nH]1 : what is it?
Output: 78.4

Task: Reported inhibition for Cc1cccc(Nc2ncnc3onc(-c4cccc(Cl)c4)c23)c1C : what is it?
Output: 15.5

Task: Reported inhibition for COc1ccccc1-c1cc(C(F)(F)F)nc(S(=O)(=O)CCCC(=O)N2CCCCC2C)n1 (configuration not stated) : what is it?
Output: 66.8

Task: Reported inhibition for O=C1c2ccccc2S(=O)(=O)N1Cc1nc2ccccc2s1 : what is it?
Output: 53.2

Task: Reported inhibition for CC(=O)c1ccc(N2CCN(S(=O)(=O)c3ccc4c(c3)CC(C)N4C(C)=O)CC2)cc1 (configuration not stated) : what is it?
Output: 47.2

Task: Reported inhibition for O=C(Nc1ccccc1C(=O)Nc1nnc(C(F)(F)F)s1)c1ccccc1Cl : what is it?
Output: 86.7

Task: Reported inhibition for N#C/C(=C\C=C\c1ccccc1[N+](=O)[O-])C(=O)NC1CCCCC1 : what is it?
Output: 61.6

Task: Reported inhibition for Nc1nc(CCl)nc(Nc2ccc3ccccc3c2)n1 : what is it?
Output: -13.4

Task: Reported inhibition for O=Cc1[nH]c2ccccc2c1N(C(=O)CCl)c1ccccc1 : what is it?
Output: 31.9

Task: Reported inhibition for O=C(NCc1cccs1)c1nc2c(nnn2Cc2ccccc2Cl)c(=O)[nH]1 : what is it?
Output: 98.2

Task: Reported inhibition for Cc1cc(C)c(S(=O)(=O)/N=C2/C=C(Sc3ncn[nH]3)C(=O)c3ccccc32)cc1C : what is it?
Output: 75.1

Task: Reported inhibition for O=C(CSc1n[nH]c(-c2ccccn2)n1)Nc1cccc(Cl)c1 : what is it?
Output: 81.4

Task: Reported inhibition for O=C(c1ccc(Cn2c(=S)[nH]c3cc4c(cc3c2=O)OCO4)cc1)N1CCN(c2ncccn2)CC1 : what is it?
Output: 59.2

Task: Reported inhibition for O=C(c1ccc(Cn2c(=S)[nH]c3ccccc3c2=O)cc1)N1CCN(c2ccccn2)CC1 : what is it?
Output: 17.4

Task: Reported inhibition for CCc1cc(C(=O)N/N=C/c2ccc(O)cc2O)c2ccccc2n1 : what is it?
Output: 50.7

Task: Reported inhibition for C=C1C(=O)[C@@]23[C@H](O)C[C@@H]4C(C)(C)CC[C@H](O)[C@@]4(C)[C@@H]2CC[C@@H]1[C@H]3O : what is it?
Output: 68.9

Task: Reported inhibition for COc1ccc(CC(=O)N(Cc2ccccc2)c2ccccc2)cc1S(=O)(=O)N1CCOCC1 : what is it?
Output: 13.5

Task: Reported inhibition for CC(C)(C)c1ccc(C(=O)O/N=C(\N)c2ccccn2)cc1 : what is it?
Output: 22.5

Task: Reported inhibition for O=C(CCl)N(c1ccccc1)c1c[nH]c2ccccc12 : what is it?
Output: 103

Task: Reported inhibition for O=C(CCl)N=c1sccn1Cc1ccccc1Cl : what is it?
Output: 48.8

Task: Reported inhibition for Cc1ccc(-n2c3nc(=O)[nH]c(=O)c-3cc3cc([N+](=O)[O-])ccc32)cc1C : what is it?
Output: 41.9

Task: Reported inhibition for CC1CCCCC1NC(=O)/C(C#N)=C/C=C/c1ccccc1[N+](=O)[O-] (configuration not stated) : what is it?
Output: 47.1

Task: Reported inhibition for O=C(CN1C(=O)c2ccccc2S1(=O)=O)c1ccc(F)cc1 : what is it?
Output: 29.1

Task: Reported inhibition for O=C(CCl)N(Cc1ccccc1)c1ccccc1 : what is it?
Output: 89.7

Task: Reported inhibition for CCSc1nnc(Cc2cc(=O)[nH]c(=O)[nH]2)n1-c1cc(C)ccc1C : what is it?
Output: 16.9

Task: Reported inhibition for O=C(c1[nH]nc2c1CCc1ccccc1-2)N1CCN(Cc2ccc3c(c2)OCO3)CC1 : what is it?
Output: 45.6

Task: Reported inhibition for CC(C)(C)c1ccc(C(=O)O/N=C(\N)c2ccccc2)cc1 : what is it?
Output: 51

Task: Reported inhibition for CCOC(=O)N1CCN(C(=O)c2ccc(Cn3c(=S)[nH]c4cc5c(cc4c3=O)OCO5)cc2)CC1 : what is it?
Output: 55.2

* * *

# measurement_notes: TNF-a-driven NF-kB reporter inhibitors, primary screen, selectivity assay for NOD1/NOD2 signaling inhibitor project, cell-based, HEK293T NF-kB-Luc, luminescence (AID 1852)
# details: TNF-a induced, 14 h, at 4 µM, active compounds read high
Out of some 2,500 compounds screened, about 1,100 (44%) were called active. So high a share suggests a set chosen from earlier hits. The list shows a part of the results.
Respond with y for inhibition values of 30% and above, n for values below.

Task: Does the compound Oc1[nH]c2ccccc2c1N=Nc1nc(Nc2ccccc2)nc(N2CCOCC2)n1 have recorded inhibition that is 30% or more?
Output: n

Task: Does the compound COc1cc(-c2n[nH]c(=S)n2-c2ccc(C)cc2)cc(OC)c1OC have recorded inhibition that is 30% or more?
Output: n

Task: Does the compound O=[N+]([O-])c1cc(Cl)cc(/C=N/NC(=S)Nc2cc(S(=O)(=O)N3CCOCC3)ccc2Cl)c1O have recorded inhibition that is 30% or more?
Output: y

Task: Does the compound Cc1cc(C(=O)CSc2nnc(-c3cccs3)o2)c(C)n1-c1ccccc1 have recorded inhibition that is 30% or more?
Output: y

Task: Does the compound CCCCCCCCn1c2c(c(=N)c3ccccc31)CCC2 have recorded inhibition that is 30% or more?
Output: y

Task: Does the compound O=C(N/N=C\c1ccc([N+](=O)[O-])s1)C1COc2ccccc2O1 (configuration not stated) have recorded inhibition that is 30% or more?
Output: n

Task: Does the compound Oc1[nH]c2ccccc2c1N=NC(=S)N1CCOCC1 have recorded inhibition that is 30% or more?
Output: y

Task: Does the compound COc1cccc(N=Nc2ccc3cccnc3c2O)c1 have recorded inhibition that is 30% or more?
Output: y

Task: Does the compound COc1ccc(-c2c[n+]3c(n2-c2ccc(C)cc2)CCCCC3)cc1 have recorded inhibition that is 30% or more?
Output: y

Task: Does the compound Cc1sc2ncnc(N3CCN(S(=O)(=O)c4ccc(F)cc4)CC3)c2c1C have recorded inhibition that is 30% or more?
Output: n

Task: Does the compound Cc1nc2cc(N3CCN(C)CC3)c(NC(=O)Cc3ccccc3)cc2c(=O)n1Cc1ccccc1 have recorded inhibition that is 30% or more?
Output: n

Task: Does the compound O=C(Nc1cc(S(=O)(=O)Nc2ccccc2Cl)ccc1O)c1cc2c(s1)CCCC2 have recorded inhibition that is 30% or more?
Output: y

Task: Does the compound O=C(NNC(=O)c1cc(-c2ccccc2)nn1-c1ccccc1)c1ccccc1 have recorded inhibition that is 30% or more?
Output: n

Task: Does the compound O=C(NC1CCCC1)c1sc(=S)n2c1[nH]c(=O)c1ccccc12 have recorded inhibition that is 30% or more?
Output: y

Task: Does the compound Cc1cc(-c2ccc(C)c(S(=O)(=O)N3CCN(c4ccc([N+](=O)[O-])cc4)CC3)c2)on1 have recorded inhibition that is 30% or more?
Output: n

Task: Does the compound Cc1cc(C)c(C)c(S(=O)(=O)N2CCN(c3ncnc4sc(C)c(C)c34)CC2)c1C have recorded inhibition that is 30% or more?
Output: y

Task: Does the compound Cc1cc(NC(=O)c2ccccc2NS(=O)(=O)c2c(C)c(C)cc(C)c2C)no1 have recorded inhibition that is 30% or more?
Output: n

Task: Does the compound CCCCCCCCCn1c2c(c(=N)c3c1CCC3)CCC2 have recorded inhibition that is 30% or more?
Output: y

Task: Does the compound COc1ccc(C)cc1NC(=O)c1ccccc1NS(=O)(=O)c1ccc(Cl)s1 have recorded inhibition that is 30% or more?
Output: y

Task: Does the compound O=C(NC(NC(=S)Nc1ccc(Cl)cc1Cl)C(Cl)(Cl)Cl)c1cccc([N+](=O)[O-])c1 (configuration not stated) have recorded inhibition that is 30% or more?
Output: y

Task: Does the compound Cc1ccc(OCCN2CCN(c3ncnc4sc(C)c(C)c34)CC2)cc1 have recorded inhibition that is 30% or more?
Output: y

Task: Does the compound COc1cccc(Nc2nc3ccccc3nc2NS(=O)(=O)c2cccs2)c1 have recorded inhibition that is 30% or more?
Output: n

Task: Does the compound Cc1ccc(NC(=O)c2cc3c(s2)CCCC3)cc1S(=O)(=O)Nc1ccccc1Cl have recorded inhibition that is 30% or more?
Output: y

Task: Does the compound O=C(NC(NC(=S)Nc1ccccc1Cl)C(Cl)(Cl)Cl)c1cccc(Cl)c1 (configuration not stated) have recorded inhibition that is 30% or more?
Output: n

Task: Does the compound CCCCCCCCCCn1c2c(c(=N)c3c1CCC3)CCC2 have recorded inhibition that is 30% or more?
Output: y

Task: Does the compound CC(C)CC(=O)/C(=C\c1ccc(Cl)cc1Cl)n1cncn1 have recorded inhibition that is 30% or more?
Output: y

Task: Does the compound COc1ccc(-n2c(C)cc(C(=O)CSc3nnc(-c4cccs4)o3)c2C)cc1 have recorded inhibition that is 30% or more?
Output: y

Task: Does the compound C=CCSc1nsc(NC(=O)Nc2cccc(C(C)=O)c2)n1 have recorded inhibition that is 30% or more?
Output: y

Task: Does the compound Cc1cc(C(=O)N/N=C/c2ccc([N+](=O)[O-])s2)c2ccccc2n1 have recorded inhibition that is 30% or more?
Output: y

Task: Does the compound Cc1ccc(S(=O)(=O)Nc2nc3ccccc3nc2Nc2cccc(S(=O)(=O)N3CCCC3)c2)cc1 have recorded inhibition that is 30% or more?
Output: y

Task: Does the compound CCOC(=O)C(=Cc1ccc(-n2cncn2)cc1)C(=O)OCC have recorded inhibition that is 30% or more?
Output: n

Task: Does the compound O=C(N/N=C/c1ccc([N+](=O)[O-])s1)c1cccc(Br)c1 have recorded inhibition that is 30% or more?
Output: y

Task: Does the compound O=[N+]([O-])c1ccc(O)c(/C=N/Nc2ccc(Cl)nn2)c1 have recorded inhibition that is 30% or more?
Output: y

Task: Does the compound CCCOc1ccc(/C=N/NC(=S)Nc2ccccc2[N+](=O)[O-])c(O)c1 have recorded inhibition that is 30% or more?
Output: n

Task: Does the compound CC(C)(C)C(=O)/C(=C/c1ccc(Cl)cc1)n1cncn1 have recorded inhibition that is 30% or more?
Output: y

Task: Does the compound O=[N+]([O-])c1ccc(O)c(/C=N/Nc2ccccc2[N+](=O)[O-])c1 have recorded inhibition that is 30% or more?
Output: y

Task: Does the compound COc1ccc2[nH]c(=O)c3c(c2c1)OC(C)(C)C=C3 have recorded inhibition that is 30% or more?
Output: y

Task: Does the compound O=C(Cc1cccs1)N/N=C\c1ccc([N+](=O)[O-])s1 have recorded inhibition that is 30% or more?
Output: y

Task: Does the compound O=[N+]([O-])c1cccc(S(=O)(=O)Nc2nc3ccccc3nc2Nc2cccc(S(=O)(=O)N3CCCCC3)c2)c1 have recorded inhibition that is 30% or more?
Output: y

Task: Does the compound C/C(=N\NC(=O)c1cc2ccccc2cc1O)c1ccccn1 have recorded inhibition that is 30% or more?
Output: n

Task: Does the compound O=C(c1ccccc1)c1nn(-c2ccc(Cl)cc2)c(=O)cc1C(F)(F)F have recorded inhibition that is 30% or more?
Output: y
